test: PK, intravenous administration; assay type: in vivo, male Sprague Dawley rats; conditions: male, Sprague Dawley, plasma; rat, intravenous, dose 1 mg/kg; read-out: Cl
Counter-ions that a name gives are not always drawn.
For each record, check the reported clearance: if it is below 10 mL/min/kg write True, else write False.

These solved cases illustrate the format of a correct answer.
CC(C)N1CCC(S(=O)(=O)NC(=O)Nc2c3c(cc4c2CCC4)CCC3)C1 (stereo not shown) [Example 41, potassium salt]: True
O=C(Nc1c2c(cc3c1CCC3)CCC2)NS(=O)(=O)C1CN(C2CSC2)C1 [Example 109, potassium salt]: True
O=C(Nc1c2c(cc3c1CCC3)CCC2)NS(=O)(=O)C1CN(C2CCC2)C1 [Example 18, potassium salt]: False
CCCN1CC(S(=O)(=O)NC(=O)Nc2c3c(cc4c2CCC4)CCC3)C1 [Example 76, potassium salt]: True
CCN1CCC(S(=O)(=O)NC(=O)Nc2c3c(cc4c2CCC4)CCC3)CC1 [Example 6, potassium salt]: True

We next turn to a different molecule, shown below.
Exercise: Determine if COc1cc(-c2ccc3c(c2NC(=O)NS(=O)(=O)c2ccc(=O)n(C(C)C)c2)CCC3)ccn1 [Example 153] shows clearance strictly lower than 10 mL/min/kg.
Solution: False

----------
# AUC listing for each entry below
assay: PK, oral administration; format: in vivo, male Sprague Dawley rats; conditions: male, Sprague Dawley, plasma, rat, dose 3 mg/kg
Where a name gives a salt, the structure may show the parent alone.
Write the number in ng·h/mL without appending the unit.

CCN1CCC(S(=O)(=O)NC(=O)Nc2c3c(cc4c2CCC4)CCC3)CC1 [Example 6, potassium salt]: 5400

Exercise: Which measured AUC value corresponds to CC(C)N1CC(S(=O)(=O)NC(=O)Nc2c3c(cc4c2CCC4)CCC3)C1 [Example 46, potassium salt] ?
Solution: 3510

----------
test: PK, intravenous administration; format: in vivo, male Sprague Dawley rats; details: male, Sprague Dawley, rat, in vivo, iv, 1.86 mg/kg
Counter-ions that a name gives are not always drawn.
measurement-name: half-life (h)
Respond with the bare value in h.

Exercise: Fill in the blank: the reported half-life of CCN1[C@@H]2CC[C@H]1C[C@H](S(=O)(=O)NC(=O)Nc1c3c(cc4c1CCC4)CCC3)C2 [Example 70, potassium salt] is ____.
Solution: 1.7

----------
experiment: PK, intravenous administration; type: in vivo, male Sprague Dawley rats; conditions: male, Sprague Dawley, plasma; rat, intravenous, dose 2.09 mg/kg; read-out: AUC
Counter-ions that a name gives are not always drawn.
measurement-name: AUC (ng·h/mL)
Express the result in ng·h/mL but write the number alone.

Exercise: # AUC lookup, item O=C(Nc1c2c(cc3c1CCC3)CCC2)NS(=O)(=O)C1CN(CC2CC2)C1 [Example 94, potassium salt]
Solution: 1410

----------
Experiment: PK, intravenous administration
Format: in vivo, male Sprague Dawley rats
Conditions: male, Sprague Dawley, rat, in vivo, iv, 1.86 mg/kg
Description: Pharmacokinetic parameters were determined in male Sprague Dawley rats (Charles River, UK, 250-300 g; or Vital River Laboratory Animal Technology Co Ltd, Beijing, China, 7-9 weeks old). Animals were individually housed during the study and maintained under a 12 h light/dark cycle. Animals had free access to food and water except that orally dosed animals were food deprived overnight prior to the study. […]
Structures can show the parent of a compound that is named as a salt.
measurement-name: clearance
Please don't drop the unit; write it after the number.

Exercise: Give the measured clearance of CCN1[C@@H]2CC[C@H]1C[C@H](S(=O)(=O)NC(=O)Nc1c3c(cc4c1CCC4)CCC3)C2 [Example 70, potassium salt] .
Solution: 12.1 mL/min/kg

----------
target: NLRP3 (Homo sapiens (Human), UniProt Q96P20); assay: THP-1 cells pyroptosis assay (LPS + nigericin, resazurin read-out); type: cell-based; conditions: 1 μg/ml LPS, 5 μM nigericin
Sequence (Q96P20 whole entry): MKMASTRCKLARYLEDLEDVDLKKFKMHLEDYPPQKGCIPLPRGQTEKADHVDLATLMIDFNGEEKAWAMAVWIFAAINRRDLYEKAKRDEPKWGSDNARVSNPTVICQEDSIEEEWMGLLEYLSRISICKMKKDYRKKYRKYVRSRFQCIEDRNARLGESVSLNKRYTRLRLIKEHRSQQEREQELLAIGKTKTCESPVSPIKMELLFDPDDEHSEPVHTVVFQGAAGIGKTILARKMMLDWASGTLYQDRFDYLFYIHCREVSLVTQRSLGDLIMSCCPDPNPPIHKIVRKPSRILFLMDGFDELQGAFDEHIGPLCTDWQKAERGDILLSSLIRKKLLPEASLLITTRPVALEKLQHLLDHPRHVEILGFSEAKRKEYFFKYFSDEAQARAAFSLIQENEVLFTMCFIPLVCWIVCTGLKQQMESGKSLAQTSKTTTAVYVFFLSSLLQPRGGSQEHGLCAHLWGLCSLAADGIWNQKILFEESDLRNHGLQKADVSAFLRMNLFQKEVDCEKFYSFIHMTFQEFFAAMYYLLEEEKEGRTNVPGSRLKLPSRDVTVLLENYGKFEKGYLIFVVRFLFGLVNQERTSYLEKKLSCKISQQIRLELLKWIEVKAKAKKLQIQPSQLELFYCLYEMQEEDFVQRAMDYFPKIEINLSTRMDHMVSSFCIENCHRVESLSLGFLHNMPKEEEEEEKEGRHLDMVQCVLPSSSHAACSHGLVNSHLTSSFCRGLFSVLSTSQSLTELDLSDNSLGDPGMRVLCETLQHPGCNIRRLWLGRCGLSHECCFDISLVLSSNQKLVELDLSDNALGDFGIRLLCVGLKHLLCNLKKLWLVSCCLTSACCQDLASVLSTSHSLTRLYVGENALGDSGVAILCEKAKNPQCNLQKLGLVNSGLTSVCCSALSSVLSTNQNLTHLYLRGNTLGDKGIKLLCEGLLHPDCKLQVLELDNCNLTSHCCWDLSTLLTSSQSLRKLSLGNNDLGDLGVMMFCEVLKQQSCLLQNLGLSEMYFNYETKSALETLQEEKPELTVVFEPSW
pIC50: −log10 of the molar value. Counter-ions that a name gives are not always drawn.
Some compounds, each annotated with its measured pIC50.

CN1CCCC(S(=O)(=O)NC(=O)Nc2c3c(cc4c2CCC4)CCC3)CC1 (centres unmarked) [Example 195, potassium salt]: > 6.00
CN1CC(S(=O)(=O)NC(=O)Nc2c3c(cc4c2CCC4)CCC3)C1 [Example 49, potassium salt]: > 6.00
Cn1ccnc1CN1CC(S(=O)(=O)NC(=O)Nc2c3c(cc4c2CCC4)CCC3)C1 [Example 123, potassium salt]: 5.00 to 6.00
O=C(Nc1c2c(cc3c1CCC3)CCC2)NS(=O)(=O)C1CCN(C(=O)C2CCC2)CC1 [Example 25, potassium salt]: 5.00 to 6.00
O=C(Nc1c2c(cc3c1CCC3)CCC2)NS(=O)(=O)C1CCN(C(=O)C(F)(F)F)C1 (centres unmarked) [Example 54, potassium salt]: 5.00 to 6.00

Exercise: pIC50 for CSCCN1CC(S(=O)(=O)NC(=O)Nc2c3c(cc4c2CCC4)CCC3)C1 [Example 107, potassium salt] ?
Solution: > 6.00

Exercise: Next compound up: COc1cc(-c2ccc3c(c2NC(=O)NS(=O)(=O)c2ccn(C(C)C)c(=O)c2)CCC3)ccn1 [Example 179, sodium salt]
Solution: > 6.00

Exercise: Lookup CN1CCCC(S(=O)(=O)NC(=O)Nc2c3c(cc4c2CCC4)CCC3)C1 (centres unmarked) [Example 60, potassium salt]
Solution: 5.00 to 6.00

----------
test: PK, intravenous administration; type: in vivo, male Sprague Dawley rats; settings: male, Sprague Dawley, rat, in vivo, iv, 0.66 mg/kg
Counter-ions that a name gives are not always drawn.
measurement-name: half-life (h)
# value in h; strip the unit string

Exercise: Quick check: half-life of CC(C)N1[C@@H]2CC[C@H]1C[C@@H](S(=O)(=O)NC(=O)Nc1c3c(cc4c1CCC4)CCC3)C2 [Example 45, potassium salt] ?
Solution: 3.3

----------
Quick reference: Tmax of the listed items.
experiment: PK, oral administration; format: in vivo, male Sprague Dawley rats; conditions: male, Sprague Dawley, plasma, rat, dose 3 mg/kg
Where a name gives a salt, the structure may show the parent alone.
Kindly answer with a numeric value in min, unit omitted.

CC(C)N1CC(S(=O)(=O)NC(=O)Nc2c3c(cc4c2CCC4)CCC3)C1 [Example 46, potassium salt]: 40.2

In the following, a different compound is considered.
Exercise: Given CCN1CCC(S(=O)(=O)NC(=O)Nc2c3c(cc4c2CCC4)CCC3)CC1 [Example 6, potassium salt] , state its recorded Tmax.
Solution: 30

----------
target: UniProtKB Q96P20; experiment: Human whole blood IL1β release assay (LPS + nigericin); assay type: cell-based; details: human whole blood, 1 μg/ml LPS, nigericin, IL-1β release; read-out: HWB IC50
Where a name gives a salt, the structure may show the parent alone.
measurement-name: IC50

Guide cases for IC50, answers given:
O=C(Nc1c2c(cc3c1CCC3)CCC2)NS(=O)(=O)C1CN(CCF)C1 [Example 108, potassium salt]: < 1000 nM
CC(C)n1cc(S(=O)(=O)NC(=O)Nc2c3c(cc4c2CCC4)CCC3)ncc1=O [Example 181, sodium salt]: < 1000 nM
C#CCN1CCC(S(=O)(=O)NC(=O)Nc2c3c(cc4c2CCC4)CCC3)CC1 [Example 2, potassium salt]: 1000 to 10000 nM

# input for lookup
Exercise: Which IC50 value is on record for O=C(Nc1c2c(cc3c1CCC3)CCC2)NS(=O)(=O)C1CN(C2CCOCC2)C1 [Example 75, potassium salt] ?
Solution: < 1000 nM

----------
Here the recorded IC50 is given for each entry.
target: NLRP3 (Homo sapiens (Human), UniProt Q96P20); assay: THP-1 cells pyroptosis assay (LPS + nigericin, resazurin read-out); format: cell-based; conditions: 1 μg/ml LPS, 5 μM nigericin
Structures can show the parent of a compound that is named as a salt.

Example cases with answers are listed next.
O=C(Nc1c2c(cc3c1CCC3)CCC2)NS(=O)(=O)C1CCN(C(=O)C2CC2)CC1 [Example 7, potassium salt]: < 1000 nM
CCN1CC(S(=O)(=O)NC(=O)Nc2c3c(cc4c2CCC4)CCC3)C1 [Example 53, potassium salt]: < 1000 nM
O=C(Nc1c2c(cc3c1CCC3)CCC2)NS(=O)(=O)C1CN(CC2CCOC2)C1 (stereo not shown) [Example 144, potassium salt]: < 1000 nM

Exercise: Look up IC50 for this molecule: O=C(Nc1c2c(cc3c1CCC3)CCC2)NS(=O)(=O)C1CN(CC(F)(F)F)C1 [Example 96, potassium salt]
Solution: < 1000 nM

Exercise: Thanks! And COCC(=O)N1CCC(S(=O)(=O)NC(=O)Nc2c3c(cc4c2CCC4)CCC3)CC1 [Example 12, potassium salt] ?
Solution: 1000 to 10000 nM

Exercise: Another molecule to look at: CC(=O)N1CC(N2CCC(S(=O)(=O)NC(=O)Nc3c4c(cc5c3CCC5)CCC4)CC2)C1 [Example 79, potassium salt]
Solution: 1000 to 10000 nM

Exercise: Then this molecule: CCN1CCC(S(=O)(=O)NC(=O)Nc2c(-c3ccnc(OC)c3)ccc3c2CCC3)CC1 [Example 188, potassium salt]
Solution: 1000 to 10000 nM
